Test: TLR3 IRF3 reporter activation blockers – cell-based, poly I:C stimulus, luciferase, 10K MLSCN set, primary screen (AID 602277)
Conditions: HEK293-TLR3 RL24 IRF3 luciferase reporter, at 10 µM
Active and inactive are the calls of the source.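 How the source made its calls: active means inhibition of the reporter signal at or above 50%; inactive means inhibition below 50%.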
Give one outcome, nothing more. List: active, inactive

# example entries with known answers
compound: Cc1cc(C)c(NC(=O)C2CSCCS2)c(C)c1 (stereo unspecified)
category: inactive

compound: CCC(Sc1ncccc1C(=O)O)C(=O)N1CCCC1 (stereo unspecified)
category: inactive

compound: Cn1c(=O)c2c([nH]c(=O)n2C)n(C)c1=O
category: inactive

compound: Cc1ccccc1Nc1nc(N)nc(CSCc2c(C)noc2C)n1
category: inactive

compound: CN(C(=O)c1ccccc1Cl)c1ccccc1
category: inactive

Challenge: Hi, sorry to bother you, what did the test record for O=C(NCc1ccc2c(c1)OCO2)C1CCC(CNS(=O)(=O)c2ccccc2)CC1 (stereo unspecified) ?
Response given: inactive

Challenge: Per the assay record, what outcome was assigned to CC(=O)c1c(C)oc2ccc(NS(=O)(=O)c3ccc(O)c(C(=O)O)c3)cc12 ?
Response given: inactive

====

Can you tell me slope for the items I'm about to list?
Target: Alpha-2C adrenergic receptor (Homo sapiens)
Test: compounds altering alpha2C-coupled GIRK flux – cell-based, HEK293 alpha2C/GIRK1/2, thallium flux, primary screen (AID 624);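 further: slope of fluorescence ratio to pre-addition baseline per second over 15 to 24 s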
Conditions: thallium flux BTC fluorescence, at 10 µM, actives lie on both sides
The source made the active and inactive calls.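 The calls were made as follows: active = fluorescence slope after compound addition differing from the mean of all screened samples at 99.7% confidence, in either direction; inactive = the rest.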

Dear colleague, could you please provide slope for the compounds listed below?
1. CC1(C)CC(CCNC(=O)c2ccco2)CC(C)(C)N1
2. Cc1nc2ncnn2c(N2CCC(C(=O)NC3CCCC3)CC2)c1Cc1ccccc1
3. CCc1nn2c(=O)cc(CSc3nc4sc5c(c4c(=O)n3C)CCCC5)nc2s1
4. COC(=O)CCC(=O)Nc1ccc(S(=O)(=O)N2CCCCCC2)cc1
5. CCC(=O)N1Cc2ccccc2-c2ccccc2C1=O
6. Cc1cccc(Cc2nnc(NC(=O)c3cccc(S(=O)(=O)N4CCOCC4)c3)s2)c1

Response given:
0.00616 (inactive)
0.00426 (inactive)
0.00602 (inactive)
0.00616 (inactive)
0.006 (inactive)
0.00421 (inactive)

====

Experiment: TLR3 IRF3 reporter activation blockers – cell-based, poly I:C stimulus, luciferase, 10K MLSCN set, primary screen (AID 602277)
Conditions: HEK293-TLR3 RL24 IRF3 luciferase reporter, at 10 µM, stronger effect = higher value
reported.endpoint: inhibition (%)
One number for each entry, in %.

Worked examples follow.
compound: Cc1onc(-c2ccccc2Cl)c1C(=O)N1CCc2ccccc21
inhibition [%]: 34.8
--
compound: CCOC(=O)c1cc(C(C)(C)C)oc1CN
inhibition [%]: 21.7
--
compound: CC12COC3(C(=O)Nc4ccc(Cl)cn4)CC1CCC32C (centres undefined)
inhibition [%]: 10.2

Could you report inhibition for every entry in the following list?
1. CCN1CCCC1CNC(=O)CS(=O)(=O)Cc1nc(-c2ccccc2C)oc1C (centres undefined)
2. O=C1CCn2nc(-c3ccc(Cl)cc3)cc2N1
3. CCOC(=O)c1ccc(N(CC(=O)NC2CCCC2)C(=O)CNC(=O)c2ccco2)cc1
4. Cc1ccccc1NC(=O)CSc1nc(N)c(C#N)c(-c2cccs2)c1C#N
5. Cc1ccc(C(C)n2cc(C(=O)NCCN3CCN(C)CC3)nn2)cc1 (centres undefined)
6. Cc1cc(Cl)cc2c1NC(=O)[C@]21[C@@H]2C(=O)N(Cc3ccccc3)C(=O)[C@@H]2[C@@H]2CCCN21
7. CCn1nc(C)c(NC(=O)c2cc(Br)ccc2Cl)c1C

Response given:
1. 46.5
2. -53
3. 18.5
4. 14.3
5. 7.62
6. 27.9
7. 25

Values were extracted from PubChem BioAssay.
